- EXPERIMENTAL SYSTEM: T1, GLP-1 receptor present in the plasma membranes isolated from RINm5F cells (UniProt P32301 22-463, limits assumed)
- T1 construct: whole, on cells
- T1 sequence (looked up): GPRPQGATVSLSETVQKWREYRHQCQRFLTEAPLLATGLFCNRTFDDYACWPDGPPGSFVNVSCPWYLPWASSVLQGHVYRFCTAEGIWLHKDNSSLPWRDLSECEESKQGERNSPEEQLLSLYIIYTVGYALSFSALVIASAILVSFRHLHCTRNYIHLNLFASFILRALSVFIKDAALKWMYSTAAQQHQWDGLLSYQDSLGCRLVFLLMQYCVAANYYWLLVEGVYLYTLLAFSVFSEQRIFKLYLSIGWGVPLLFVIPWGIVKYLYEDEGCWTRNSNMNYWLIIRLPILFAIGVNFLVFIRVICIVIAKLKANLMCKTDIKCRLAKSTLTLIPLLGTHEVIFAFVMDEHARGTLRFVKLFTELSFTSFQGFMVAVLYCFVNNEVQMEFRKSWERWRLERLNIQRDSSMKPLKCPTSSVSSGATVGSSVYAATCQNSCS
- PROCEDURE SUMMARY: 125I-GLP-1 displacement, RINm5F plasma membranes
Ends that are not written are not given here. * marks the point of attachment. Palmitoyl = CCCCCCCCCCCCCCCC(=O)*
VALUE KIND: IC50 (nM)
// note: answer is a bare numeric in nM

Consider the reported IC50 for these binders:
HSQGTFTSDYARYLDARRAREFIKWLVRGRG [G83]: 3.2
HSQGTFTSDYAKYLDAKKAKEFIAWLVKGRG [G58]: 6.9
HSQGTFTSDYAKYLDAARAKEFIAWLVKGR-NH2 [G57]: 14.7

So what does the record say about IC50 for HSQGTFTSDYAKYLDARRAKEFIAWLVCGRG [G74] ? 4.4

Please do the same for HSQGTFTSDYAKYLDARRAKEFIAWLVKCRG [G75] as well. 7.7

Please do the same for HSQGTFTSDYAKYLDARRAKEFIAWLVKGRK(Palmitoyl) [G88] as well. 109
